All values here come from patent US20080200654A1.

Biological target: T1, A33 antigen (full-length human A33) (human, UniProt Q99795 22-319)
T1 construct: Class I cell membrane protein of the Ig superfamily; also called GPA33; human A33 antigen
T1 sequence: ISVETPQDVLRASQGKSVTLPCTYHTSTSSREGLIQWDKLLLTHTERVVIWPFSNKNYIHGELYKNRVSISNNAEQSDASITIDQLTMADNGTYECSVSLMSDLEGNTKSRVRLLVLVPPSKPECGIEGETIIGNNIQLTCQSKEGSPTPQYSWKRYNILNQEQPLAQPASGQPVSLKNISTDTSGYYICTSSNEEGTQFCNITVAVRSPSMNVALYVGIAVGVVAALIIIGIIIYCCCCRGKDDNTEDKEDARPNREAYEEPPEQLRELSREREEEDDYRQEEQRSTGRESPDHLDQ
Assay: FCM competition on COLO205 cells; antibody 1 µg/ml, competitor mouse anti-A33 antibody 100 µg/ml
MEASUREMENT NAME: Inhibition (%)
Numbers only, in %.

# BINDER, U, Inhibition (%)
measured = [
    ("263A17 (antibody, V domains shown, Human IgG1 kappa antibody purified from the hybridoma; also called 263A17 antibody) VH: EVQLLESGGGLVQPGGSLRLSCAASGFTFSSYAMSWIRQAPGKGLEWVSAISASGGSTYYADSVKGRFTISRDNSKNTLYLQMNSLRAEDTAVYYCAKDRIVGATNYYYGMDVWGQGTTVTVSS VL: DIQMTQSPPSVSASVGDRVTITCRASQGISSWLAWYQHKPGKAPKLLIYGASSLQSGVPSRFSGSGSGTDFTLTISSLQPEDFATYYCQQANSFPITFGQGTRLEIK", "%", 3.7),
]

Hey, can you go through the list below and give me Inhibition (%) for every item?
1. 125Q47BA (antibody, V domains shown, Human IgG1 kappa antibody purified from the hybridoma (FERM BP-10104); also called 125Q47BA antibody) VH: EVQLLESGGGLVQPGGSLRLSCAASGFTFSSYAMTWVRQAPGKGLEWVSDISGSGGYTYYADSVKGRFTISRDNSKNTLYLQMNSLRAEDTAVYYCAKTGAGSGSYSPDSWGQGTLVTVSS VL: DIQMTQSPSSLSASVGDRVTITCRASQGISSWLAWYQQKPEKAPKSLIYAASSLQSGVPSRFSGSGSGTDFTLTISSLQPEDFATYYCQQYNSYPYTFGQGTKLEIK
2. chimeric anti-A33 antibody (antibody, V domains shown, Mouse variable regions with human IgG1 heavy chain and light chain constant regions (N5KG1-Val Lark vector); also called cA33; chimeric anti-A33 recombinant antibody) VH: EVKLVESGGGLVKPGGSLKLSCAASGFAFSTYDMSWVRQTPEKRLEWVATISSGGSYTYYLDSVKGRFTISRDSARNTLYLQMSSLRSEDTALYYCAPTTVVPFAYWGQGTLVTVSS VL: DIVMTQSQKFMSTSVGDRVSITCKASQNVRTVVAWYQQKPGQSPKTLIYLASNRHTGVPDRFTGSGSGTDFTLTISNVQSEDLADYFCLQHWSYPLTFGSGTKLEVK

1. 64.1
2. 94.2
